- protocol_description: rat predicted hepatic clearance (hepatic microsomes)
- Type: in vitro ADME
Let's look at some molecules and their measured rat CLhep (predicted hepatic clearance).
Provide the reading as a plain figure in mL/min/kg.

O=C(NCc1ccc(OC(F)(F)F)cc1F)c1ccc2ncnn2c1 [Compound 19b]    2.9
Cc1cc(OC(F)(F)F)ccc1CNC(=O)c1ccc2ncnn2c1 [Compound 19a]    5.7
CS(=O)(=O)Nc1ccc(C(=O)NCc2ccc(Cl)cc2Cl)cc1 [Compound 13]    17.4

--- query ---
Form: molecule = O=c1[nH]c(-c2ccc(F)cc2Nc2cccc(C(F)(F)F)c2)no1 [Compound 11] ; rat CLhep (predicted hepatic clearance) = 26.8
